biological target: Adenosine receptor A3 (Homo sapiens, UniProt P0DMS8)
Sequence (P0DMS8 whole entry): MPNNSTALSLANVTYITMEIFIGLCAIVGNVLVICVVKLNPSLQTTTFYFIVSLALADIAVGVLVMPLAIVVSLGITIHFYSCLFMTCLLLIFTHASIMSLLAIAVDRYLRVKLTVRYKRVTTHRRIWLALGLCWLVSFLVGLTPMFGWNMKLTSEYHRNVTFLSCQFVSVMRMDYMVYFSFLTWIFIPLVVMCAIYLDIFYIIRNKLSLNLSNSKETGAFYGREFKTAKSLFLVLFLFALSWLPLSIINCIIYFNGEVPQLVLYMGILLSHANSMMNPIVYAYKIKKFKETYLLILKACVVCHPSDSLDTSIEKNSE
MEASURE NAME: Ki (nM)
Give your result in nM as a bare value.

For O[C@@H]1[C@H](O)[C@@H](c2ccon2)O[C@H]1n1cnc2c(NCc3cccc(I)c3)nc(Cl)nc21 , what is its reported Ki?
7.8

----------
Here's what we have: pKi numbers for Adenosine receptor A2a (Rattus norvegicus, UniProt P30543).
// scale note: pKi = -log10(conc_M); give the bare number

For O[C@@H]1[C@H](O)[C@@H](c2ccon2)O[C@H]1n1cnc2c(NCc3cccc(I)c3)nc(Cl)nc21 , what is its reported pKi?
5.72

Request: CNC(=O)[C@H]1O[C@@H](n2cnc3c(NCc4ccccc4)ncnc32)[C@H](O)[C@@H]1O
5.68

Hey, just so you know, these numbers are from ChEMBL document CHEMBL1130877.
